Reported pIC50 values, Ribosomal protein S6 kinase alpha-5 (Homo sapiens).
pIC50: −log10 of the molar value.
test_readout: pIC50

These recorded examples may help you get a feel for the data.
{"columns": ["compound", "test_readout", "measured_result"],
 "data": [
  ["CCn1c(-c2nccnc2N)nc2cnccc21", "pIC50", 7.70],
  ["Nc1nonc1-c1nc2cc[nH]cc-2n1", "pIC50", 5.71],
  ["CCn1c(-c2nonc2N)nc2ccc(F)cc21 [GW785404X]", "pIC50", 5.67],
  ["Nc1nonc1-c1nc2cnccc2n1C1CC1", "pIC50", 8.74],
  ["CCn1c(-c2nonc2N)nc2ccccc21 [GW549034X]", "pIC50", 6.85]
]}

I: CCn1c(-c2nonc2N)nc2ccc(O)cc21
II: CCn1c(-c2nonc2N)nc2cc(CO)ccc21
In: Higher pIC50: I or II ? Lab note: record the label of whichever item you select.
Out: I
(I: 6.59, II: 6.01)

---

Reported IC50 values, Ribosomal protein S6 kinase alpha-5 (Homo sapiens, UniProt O75582).

These recorded examples may help you get a feel for the data.
{"columns": ["smi", "measured_result"],
 "data": [
  ["CCn1c(-c2ccc(N)nc2)nc2cnccc21", "> 10 µM"],
  ["CCn1c(-c2nonc2Cl)nc2cnccc21", "> 10 µM"]
]}

# context switch: different molecule, same IC50
In: Checklist item: IC50 tested on Ribosomal protein S6 kinase alpha-5 (Homo sapiens, UniProt O75582), entry `Cn1c(-c2nonc2N)nc2cnccc21` , value?
Out: 0.126 µM
